# Tested on: SF-539 CNS
# Procedure Text: NCI tumour cell line growth inhibition, 48 h; in the data active = GI50 below about 0.43 µM; inactive = the rest
Labels: Y for active, N for inactive

- CN(C)CCC(=O)Nc1ccc(-n2cc(-c3cccc(NC(=S)Nc4cccc(-c5cn(-c6ccc(NC(=O)CCN(C)C)cc6)nn5)c4)c3)nn2)cc1: N
- CC(C)(C)C[C@H]1N[C@@H](C(=O)NC2CCC(O)CC2)[C@H](c2cccc(Cl)c2F)[C@@]12C(=O)Nc1cc(Cl)ccc12 (stereo partly specified): N
- O=S(=O)(NC1=NCCN1C(=S)SN1CCn2c1nsc2=S)c1ccc(Cl)cc1: N
- CCOC(=O)NC(=S)N(CC(=O)c1cc(OC)c(OC)c(OC)c1)c1ccc(Cl)cc1: N
- CCCCCCCC/C=C/CCCCCCCC1=NC(C)(C)CN1C(C)(C)CO: N
- COc1cc(N2C(=O)[C@H](Cl)C2c2ccc(SC)cc2)cc(OC)c1OC (stereo partly specified): Y
- COc1ccc(-c2ccc(OC)c(OC)c2OC)cc1: N
- O=C1NC(=NCCc2ccc(Cl)cc2)S/C1=C\c1ccc2ncccc2c1: N
- CCN(CC)C(=S)SSC(C)C: N
- COC1=CC(c2ccc[nH]2)=N/C1=C\c1[nH]c(C)c(C(=O)CCCCCCCCC(=O)O[C@H]2CC[C@H]3C4CCc5cc(O)ccc5C4CC[C@]23C)c1C (stereo partly specified): N
- CCCCCCCC(=O)OCC/C=C/C1OC1C1OC(=O)/C=C\C=C\C(=O)N(C(C)=O)C(=O)/C=C(/C)CCC2OC2C1OC(=O)NC(C)=O (stereo unspecified): N
